measurement-protocol: Stability of the compound in simulated intestinal fluid assessed as compound remaining after 2 hrs
Format: ADME
assay-conditions: simulated intestinal fluid; read-out: Stability
measure: remaining at 2 h

remaining at 2 h in this record for Cc1cccc(O[C@@H]2O[C@H](CO)[C@H](O)[C@H](O)C2NC(=O)C(F)(F)F)c1-c1cccc(NS(C)(=O)=O)c1 (single isomer, unassigned) : 89%

* * *

measurement-protocol: Half life in mouse liver microsomes
Type: ADME, Microsome
assay-conditions: microsomes
measure: t1/2

Example results:
compound	t1/2
CC(=O)NC1[C@H](Oc2cccc(C#N)c2-c2cccc(NS(C)(=O)=O)c2)O[C@H](CO)[C@H](O)[C@@H]1O (single isomer, unassigned)	> 2.42 h
CC(=O)N[C@H]1[C@H](Oc2cccc(C)c2-c2cccc(NS(=O)(=O)C3CC3)c2)O[C@H](CO)[C@H](O)[C@@H]1O	> 2.42 h
CC(=O)N[C@H]1[C@H](Oc2cccc(C)c2-c2cccc(NS(C)(=O)=O)c2)O[C@H](CO)[C@H](O)[C@@H]1O	> 2.42 h
CC(=O)N[C@H]1[C@H](Oc2cccc(F)c2-c2cccc(NS(C)(=O)=O)c2)O[C@H](CO)[C@H](O)[C@@H]1O	> 2.42 h

Quick note, t1/2 for CC(=O)NC1[C@H](Oc2cccc(C(F)(F)F)c2-c2cccc(NS(C)(=O)=O)c2)O[C@H](CO)[C@H](O)[C@@H]1O (single isomer, unassigned) landed at > 2.42 h

* * *

measurement-protocol: Half life in Sprague-Dawley rat at 10 mg/kg, po or 3 mg/kg, iv by LC/MS/MS analysis
Assay type: ADME, organism-based
assay-conditions: in vivo
measure: half-life (h)
Please give a number only; it is taken to be in h.

Entry CC(=O)NC1[C@H](Oc2cccc(C(F)(F)F)c2-c2cccc(NS(C)(=O)=O)c2)O[C@H](CO)[C@H](O)[C@@H]1O (single isomer, unassigned) ; half-life = 1.16

* * *

Stability by entry:
measurement-protocol: Stability of the compound in simulated gastric fluid assessed as compound remaining after 6 hrs
Format: ADME
assay-conditions: simulated gi fluid, 6 h

Below, each entry is followed by its recorded Stability result.
molecule	Stability
CC(=O)N[C@H]1[C@H](Oc2cccc(F)c2-c2cccc(NS(C)(=O)=O)c2)O[C@H](CO)[C@H](O)[C@@H]1O	92%
CC(=O)N[C@H]1[C@H](Oc2cccc(C)c2-c2cccc(NS(C)(=O)=O)c2)O[C@H](CO)[C@H](O)[C@@H]1O	100%

According to the records, this molecule CC(=O)N[C@H]1[C@H](Oc2cccc(C)c2-c2cccc(NS(=O)(=O)C3CC3)c2)O[C@H](CO)[C@H](O)[C@@H]1O displays Stability of 100%

Looking up CC(=O)NC1[C@H](Oc2cccc(C#N)c2-c2cccc(NS(C)(=O)=O)c2)O[C@H](CO)[C@H](O)[C@@H]1O (single isomer, unassigned) , I see its Stability listed as 87%

Stability measured on CC(=O)NC1[C@H](Oc2cccc(C(F)(F)F)c2-c2cccc(NS(C)(=O)=O)c2)O[C@H](CO)[C@H](O)[C@@H]1O (single isomer, unassigned) = 89%

* * *

measurement-protocol: Kinetic solubility of the compound at pH 7.4
Assay type: physicochemical
assay-conditions: buffer, read-out: Kinetic_solubility
measure: solubility kinetic (µM)
Field format: number, assumed µM, no unit text.

Looking up Cc1cccc(O[C@@H]2O[C@H](CO)[C@H](O)[C@H](O)C2NC(=O)C(F)(F)F)c1-c1cccc(NS(C)(=O)=O)c1 (single isomer, unassigned) , I found its solubility kinetic recorded as 164

Entry source: ChEMBL document CHEMBL4330093
